From: patent US9266834B2

- TARGET: human mGluR2 receptor (Homo sapiens, UniProt Q14416)
- Construct: expressed in transfected cells; host or cells: CHO cells (membrane preparation)
- Sequence (Q14416 19-872): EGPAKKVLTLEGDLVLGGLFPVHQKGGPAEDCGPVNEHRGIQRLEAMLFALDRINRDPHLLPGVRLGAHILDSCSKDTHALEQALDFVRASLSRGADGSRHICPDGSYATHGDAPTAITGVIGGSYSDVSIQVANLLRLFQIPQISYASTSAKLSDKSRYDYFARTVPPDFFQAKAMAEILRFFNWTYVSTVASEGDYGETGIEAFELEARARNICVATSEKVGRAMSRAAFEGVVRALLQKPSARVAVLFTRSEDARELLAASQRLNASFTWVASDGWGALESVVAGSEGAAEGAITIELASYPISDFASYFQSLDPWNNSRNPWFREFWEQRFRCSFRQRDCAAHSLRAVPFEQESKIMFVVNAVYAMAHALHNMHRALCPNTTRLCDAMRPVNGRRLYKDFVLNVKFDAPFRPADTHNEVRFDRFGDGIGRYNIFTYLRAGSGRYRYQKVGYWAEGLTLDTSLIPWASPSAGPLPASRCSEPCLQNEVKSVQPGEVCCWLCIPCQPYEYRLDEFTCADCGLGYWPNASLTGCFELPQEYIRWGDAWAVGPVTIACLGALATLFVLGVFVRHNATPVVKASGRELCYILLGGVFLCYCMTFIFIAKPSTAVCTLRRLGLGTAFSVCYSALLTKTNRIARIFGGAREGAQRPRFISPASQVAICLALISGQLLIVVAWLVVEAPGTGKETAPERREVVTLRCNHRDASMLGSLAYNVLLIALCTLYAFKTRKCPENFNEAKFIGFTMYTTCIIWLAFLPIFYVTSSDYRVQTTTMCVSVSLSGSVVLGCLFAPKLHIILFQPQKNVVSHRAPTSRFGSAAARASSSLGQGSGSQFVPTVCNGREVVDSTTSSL
- PROTOCOL TEXT: [35S]GTPγS binding assay (GTPγS-PAM): positive allosteric modulation in presence of glutamate at EC25, membranes from transfected CHO cells
- Type: biochemical
- MEASUREMENT CONDITIONS: in presence of mGluR2 agonist glutamate at predetermined EC25 concentration, averages of duplicate values of 11-concentration response curves, read-out: GTPgS - hR2 PAM pEC50 (converted)
PARAMETER MEASURED: EC50 (nM)

Completed entries (count: 3):
>  <LINE NOTATION>
COc1ccc(-c2ccn(Cc3cccc(Cl)c3)c(=O)c2C#N)cc1

>  <TARGET>
human mGluR2 receptor (Homo sapiens, UniProt Q14416)

>  <UNITS TEXT>
nM

>  <EC50>
501

$$$$
>  <LINE NOTATION>
COc1cc(-c2ccn(CCC(C)C)c(=O)c2C#N)ccc1N1CCOCC1

>  <TARGET>
human mGluR2 receptor (Homo sapiens, UniProt Q14416)

>  <UNITS TEXT>
nM

>  <EC50>
2000

$$$$
>  <LINE NOTATION>
COc1ccc(CNc2ccc(-c3ccn(CCC(C)C)c(=O)c3C#N)cc2)cc1

>  <TARGET>
human mGluR2 receptor (Homo sapiens, UniProt Q14416)

>  <UNITS TEXT>
nM

>  <EC50>
316

$$$$

I: N#Cc1c(-c2ccc(OCCN3CCOCC3)cc2)ccn(Cc2ccc(OC(F)(F)F)cc2)c1=O
II: CC(C)CCn1ccc(N2CCc3c(n(C)c4ccc(F)cc34)C2)c(C#N)c1=O
III: CCCCn1ccc(OCc2ccc(-c3cccc(C)n3)cc2)c(C#N)c1=O
Which order do these items take when sorted by rising EC50? List them. # output: labels, in the requested order II, I, III
(II: 316 nM, I: 2000 nM, III: 3980 nM)

---

- TARGET: human mGluR2 receptor (Homo sapiens)
- Construct: expressed in transfected cells; host or cells: CHO cells (membrane preparation)
- PROTOCOL TEXT: [35S]GTPγS binding assay (GTPγS-PAM): positive allosteric modulation in presence of glutamate at EC25, membranes from transfected CHO cells
- Type: biochemical
- MEASUREMENT CONDITIONS: in presence of mGluR2 agonist glutamate at predetermined EC25 concentration, averages of duplicate values of 11-concentration response curves, read-out: GTPgS - hR2 PAM pEC50 (converted)
PARAMETER MEASURED: EC50 (nM)

// below: answered compounds
>  <LINE NOTATION>
CC(C)CCn1ccc(-c2ccc(OC(C)C)cc2)c(C#N)c1=O

>  <MEASURED NUMBER>
316

$$$$
>  <LINE NOTATION>
COc1cc(-c2ccn(CCC(C)C)c(=O)c2C#N)ccc1NC(C)C

>  <MEASURED NUMBER>
251

$$$$
>  <LINE NOTATION>
CC(C)CCn1ccc(-c2ccc(N3CCN(c4ccccc4)CC3)cc2)c(C#N)c1=O

>  <MEASURED NUMBER>
631

$$$$

A: CC(C)CCn1ccc(-c2ccc3c(ccn3Cc3ccncc3)c2)c(C#N)c1=O
B: COCCCc1ccc(-c2ccn(CCC(C)C)c(=O)c2C#N)cc1
C: CC(C)CCn1ccc(-c2ccc(N3CCOCC3)cc2)c(C#N)c1=O
D: CC(C)CCn1ccc(OCc2ccc(SC(F)(F)F)cc2)c(C#N)c1=O
In this exercise, place the 4 compounds in ascending sequence of their recorded EC50. List the labels according to the requested ordering. A, D, B, C

1: CC(=O)NCc1ccc(-c2ccn(CCC(C)C)c(=O)c2C#N)cc1
2: N#Cc1c(N2CCN(Cc3ccncc3)CC2)ccn(Cc2ccc(OC(F)(F)F)cc2)c1=O
Looking only at measured EC50, which entry is lower, 1 or 2 ? Identify your pick by its label. 1
